- target.system: CBL-B (Homo sapiens, UniProt Q13191)
- Construct: GST
- Sequence (Q13191 whole entry): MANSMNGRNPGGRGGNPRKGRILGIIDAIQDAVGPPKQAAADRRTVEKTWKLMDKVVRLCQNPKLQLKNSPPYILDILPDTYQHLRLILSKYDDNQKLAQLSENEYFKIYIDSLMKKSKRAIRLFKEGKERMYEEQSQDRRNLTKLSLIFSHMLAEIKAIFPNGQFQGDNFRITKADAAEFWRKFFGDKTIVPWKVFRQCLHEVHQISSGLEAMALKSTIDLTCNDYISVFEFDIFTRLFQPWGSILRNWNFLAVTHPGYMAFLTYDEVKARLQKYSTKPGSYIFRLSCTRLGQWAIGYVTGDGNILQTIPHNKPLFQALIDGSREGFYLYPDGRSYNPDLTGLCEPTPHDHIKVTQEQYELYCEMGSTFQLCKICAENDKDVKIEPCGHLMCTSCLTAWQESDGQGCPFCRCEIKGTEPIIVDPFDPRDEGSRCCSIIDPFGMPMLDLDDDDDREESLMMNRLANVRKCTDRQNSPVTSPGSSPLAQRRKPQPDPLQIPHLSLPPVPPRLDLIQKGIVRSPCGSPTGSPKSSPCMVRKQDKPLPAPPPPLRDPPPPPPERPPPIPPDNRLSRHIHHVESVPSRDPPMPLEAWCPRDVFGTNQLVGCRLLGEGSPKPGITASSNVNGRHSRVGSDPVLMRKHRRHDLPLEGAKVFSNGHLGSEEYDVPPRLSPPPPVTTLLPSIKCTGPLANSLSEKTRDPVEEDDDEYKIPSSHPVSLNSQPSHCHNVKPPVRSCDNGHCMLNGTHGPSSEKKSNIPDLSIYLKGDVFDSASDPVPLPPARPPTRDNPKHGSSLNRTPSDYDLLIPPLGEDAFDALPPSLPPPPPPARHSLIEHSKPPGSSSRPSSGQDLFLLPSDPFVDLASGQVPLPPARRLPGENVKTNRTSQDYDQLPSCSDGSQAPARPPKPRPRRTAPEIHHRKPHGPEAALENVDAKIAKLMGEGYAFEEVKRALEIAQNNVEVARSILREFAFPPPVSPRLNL
- test: CBL-B TR-FRET IC50 screening (E1/E2 ubiquitination, Biotin-Ubiquitin, Anti GST-Tb donor / Streptavidin-d2 acceptor)
- Type: biochemical
- measurement.conditions: CBL-B 10 nM final; 11-point titration from 100 uM; binned A-F; read-out: CBL-B TR-FRET activity IC50
outcome.measure: IC50

### Prompt What IC50 value was documented for this compound, CC(c1cc(C(F)(F)F)c2cn(-c3cccc([C@H](c4nncn4C)C4CCC4)c3)c(=O)n2c1)N1CCC[C@H](C)C1 (single isomer, unassigned) [Compound 194] ?
### Response < 100 nM

### Prompt What IC50 value was documented for this compound, Cc1c[nH]nc1[C@@H](c1cccc(-n2cc3c(C(F)(F)F)cc(CN4CCO[C@H](C)C4)cn3c2=O)c1)C1COC1 [Compound 268] ?
### Response > 10000 nM

### Prompt What IC50 value was documented for this compound, CN1CCC(c2cc(C(F)(F)F)c3cn(-c4cccc(C5(Cc6nncn6C)COC5)c4)c(=O)n3c2)CC1 (single isomer, unassigned) [Compound 82] ?
### Response < 100 nM

====

Would you mind telling me the reported IC50 of each entry?
- target.system: CBL-B (Homo sapiens, UniProt Q13191)
- Construct: GST
- test: CBL-B TR-FRET IC50 screening (E1/E2 ubiquitination, Biotin-Ubiquitin, Anti GST-Tb donor / Streptavidin-d2 acceptor)
- Format: biochemical
- measurement.conditions: second part of Table 2 (head 'Patent Cmpd No / Updated Activity'); same CBL-B TR-FRET IC50 bins A-F; read-out: Updated Activity

### Prompt What IC50 value was documented for this compound, Cn1cnnc1[C@@H](c1cc(-n2cc3c(C(F)(F)F)cccn3c2=O)cs1)C1CCC1 [Compound 403_P1] ?
### Response > 10000 nM

### Prompt What IC50 value was documented for this compound, Cn1cnnc1[C@@H](c1cc(F)cc(-n2cc3c(C(F)(F)F)cc(CN4CCC(C)(F)CC4)cn3c2=O)c1)C1CCC1 (single isomer, unassigned) [Compound 534] ?
### Response < 100 nM

### Prompt What IC50 value was documented for this compound, COCc1csc([C@@H](c2cccc(-n3cc4c(C(F)(F)F)cc(CN5CCC[C@H](C)C5)cn4c3=O)c2)C2CCC2)n1 (single isomer, unassigned) [Compound 389] ?
### Response > 10000 nM

### Prompt What IC50 value was documented for this compound, C[C@H]1CCCN([C@@H](C)c2cc(C(F)(F)F)c3cn(-c4cccc(C5(c6nncn6C)CCC5)c4)c(=O)n3c2)C1 [Compound 506_P2] ?
### Response < 100 nM

### Prompt What IC50 value was documented for this compound, C[C@H]1CCCN(Cc2cc(C(F)(F)F)c3cn(-c4cccc([C@H](c5nncn5C)N5CC(O)C5)c4)c(=O)n3c2)C1 (single isomer, unassigned) [Compound 406] ?
### Response 100 to 300 nM

### Prompt What IC50 value was documented for this compound, CC(=O)N1CCC[C@H](c2cc(C(F)(F)F)c3cn(-c4cccc([C@H](c5nncn5C)C5CCC5)c4)c(=O)n3c2)C1 (single isomer, unassigned) [Compound 396] ?
### Response 100 to 300 nM

### Prompt What IC50 value was documented for this compound, Cn1cnnc1[C@H](c1cc(-c2ccns2)cc(-n2cc3c(C(F)(F)F)cccn3c2=O)c1)C1CCC1 (single isomer, unassigned) [Compound 458] ?
### Response 3000 to 10000 nM

### Prompt What IC50 value was documented for this compound, CO[C@H]1C[C@](c2cccc(-n3cc4c(C(F)(F)F)cc([C@H](C)N5CCC[C@H](C)C5)cn4c3=O)c2)(c2nncn2C)C1 (single isomer, unassigned) [Compound 605] ?
### Response < 100 nM

### Prompt What IC50 value was documented for this compound, COCc1nc([C@H](c2cccc(-n3cc4c(C(F)(F)F)cc(CN5CCC[C@H](C)C5)cn4c3=O)c2)C2CCC2)c(C)s1 (single isomer, unassigned) [Compound 386] ?
### Response > 10000 nM

### Prompt What IC50 value was documented for this compound, CO[C@]1(C)C[C@H]([C@H](c2cccc(-n3cc4c(C(F)(F)F)cc(CN5CCC[C@H](C)C5)cn4c3=O)c2)c2nncn2C)C1 (single isomer, unassigned) [Compound 529] ?
### Response > 10000 nM

### Prompt What IC50 value was documented for this compound, Cn1cnnc1[C@H](c1cc(C#N)cc(-n2cc3c(C(F)(F)F)cc(CN4CCC(C)(F)CC4)cn3c2=O)c1)C1CCC1 (single isomer, unassigned) [Compound 516] ?
### Response > 10000 nM

====

Would you mind telling me the reported IC50 of each entry?
- target.system: CBL-B (Homo sapiens, UniProt Q13191)
- Construct: GST
- test: CBL-B TR-FRET IC50 screening (E1/E2 ubiquitination, Biotin-Ubiquitin, Anti GST-Tb donor / Streptavidin-d2 acceptor)
- Format: biochemical
- measurement.conditions: CBL-B 10 nM final; 11-point titration from 100 uM; binned A-F; read-out: CBL-B TR-FRET activity IC50

### Prompt What IC50 value was documented for this compound, `C[C@@H](c1cc(C(F)(F)F)c2cn(-c3cccc(C4(Cc5nncn5C)COC4)c3)c(=O)n2c1)N1CCC(C)(F)CC1` ?
### Response < 100 nM

### Prompt What IC50 value was documented for this compound, `Cn1cnnc1[C@@H](F)C1(c2cccc(-n3cc4c(C(F)(F)F)cc(CN5CCC(F)CC5)cn4c3=O)c2)COC1` ?
### Response < 100 nM

### Prompt What IC50 value was documented for this compound, `[2H]C([2H])([2H])n1cnnc1CC1(c2cccc(-n3cc4c(C(F)(F)F)cc(CN5CCO[C@H](C)C5)cn4c3=O)c2)COC1` ?
### Response < 100 nM

### Prompt What IC50 value was documented for this compound, Cn1cnnc1[C@@H](c1cccc(-n2cc3c(C(F)(F)F)cc(CN4CCC[C@H](C(F)(F)F)C4)cn3c2=O)c1)C1CCC1 (single isomer, unassigned) ?
### Response < 100 nM

### Prompt What IC50 value was documented for this compound, CC1CN(Cc2cc(C(F)(F)F)c3cn(-c4cccc([C@]5(Cc6nncn6C)C[C@@H](C#N)C5)c4)c(=O)n3c2)CCC1(F)F (single isomer, unassigned) [Compound 100] ?
### Response < 100 nM

### Prompt What IC50 value was documented for this compound, `CN1CCC(O)(c2cc(C(F)(F)F)c3cn(-c4cccc(C5(Cc6nncn6C)COC5)c4)c(=O)n3c2)CC1` ?
### Response 301 to 1000 nM

====

- target.system: CBL-B (Homo sapiens, UniProt Q13191)
- Construct: GST
- test: CBL-B TR-FRET IC50 screening (E1/E2 ubiquitination, Biotin-Ubiquitin, Anti GST-Tb donor / Streptavidin-d2 acceptor)
- Format: biochemical
- measurement.conditions: second part of Table 2 (head 'Patent Cmpd No / Updated Activity'); same CBL-B TR-FRET IC50 bins A-F; read-out: Updated Activity
Would you mind telling me the reported IC50 of each entry?

### Prompt What IC50 value was documented for this compound, `Cn1cnnc1[C@H](c1cc(-n2cc3c(C(F)(F)F)cccn3c2=O)cs1)C1CCC1` ?
### Response 301 to 1000 nM

### Prompt What IC50 value was documented for this compound, C[C@H]1CN(Cc2cc(C(F)(F)F)c3cn(-c4cccc([C@H](c5nncn5C)C5CCC5)c4)c(=O)n3c2)CC[C@@H]1O (single isomer, unassigned) ?
### Response < 100 nM

### Prompt What IC50 value was documented for this compound, Cn1cnnc1[C@@H](c1cc(-c2cncnc2)cc(-n2cc3c(C(F)(F)F)cccn3c2=O)c1)C1CCC1 (single isomer, unassigned) ?
### Response > 10000 nM

### Prompt What IC50 value was documented for this compound, `COC[C@@H]1CCN1Cc1cc(C(F)(F)F)c2cn(-c3cccc([C@H](c4nncn4C)C4CCC4)c3)c(=O)n2c1` ?
### Response < 100 nM

### Prompt What IC50 value was documented for this compound, C[C@@H]1CN(Cc2cc(C(F)(F)F)c3cn(-c4cccc([C@H](c5nncn5C)C5CCC5)c4)c(=O)n3c2)CC[C@H]1O (single isomer, unassigned) ?
### Response < 100 nM

### Prompt What IC50 value was documented for this compound, Cn1cnnc1C1(c2cccc(-n3cc4c(C(F)(F)F)cc(CN5CCC[C@@H](C(F)(F)F)C5)cn4c3=O)c2)CC2(CC2)C1 (single isomer, unassigned) ?
### Response < 100 nM

### Prompt What IC50 value was documented for this compound, `[2H]C([2H])(c1cc(C(F)(F)F)c2cn(-c3cccc([C@H](c4nncn4C)C4CCC4)c3)c(=O)n2c1)N1CCO[C@H](C)C1` ?
### Response < 100 nM

### Prompt What IC50 value was documented for this compound, Cn1cnnc1[C@@H](c1cccc(-n2cc3c(C(F)(F)F)cc(CN4CCCC(n5cnnc5)C4)cn3c2=O)c1)C1CCC1 (some centres unmarked) ?
### Response < 100 nM

### Prompt What IC50 value was documented for this compound, C[C@@H](c1cc(C(F)(F)F)c2cn(-c3cccc([C@H](c4nncn4C)C4CCC4)c3)c(=O)n2c1)N1CCC[C@@H](C(F)(F)F)C1 (single isomer, unassigned) ?
### Response < 100 nM

### Prompt What IC50 value was documented for this compound, Cn1cnnc1[C@@H](c1cc(-c2ccsn2)cc(-n2cc3c(C(F)(F)F)cccn3c2=O)c1)C1CCC1 (single isomer, unassigned) ?
### Response > 10000 nM

### Prompt What IC50 value was documented for this compound, Cn1cnnc1[C@H](c1cc(-c2cnsc2)cc(-n2cc3c(C(F)(F)F)cccn3c2=O)c1)C1CCC1 (single isomer, unassigned) ?
### Response > 10000 nM

### Prompt What IC50 value was documented for this compound, C[C@@H](c1cc(C(F)(F)F)c2cn(-c3cccc([C@H](c4nncn4C)C4CCC4)c3)c(=O)n2c1)N1CC[C@H](F)C1 (single isomer, unassigned) ?
### Response < 100 nM

### Prompt What IC50 value was documented for this compound, C[C@H]1CCCN(Cc2cc(C(F)(F)F)c3cn(-c4cccc([C@@H](c5nncn5C)N5CC(O)C5)c4)c(=O)n3c2)C1 (single isomer, unassigned) ?
### Response > 10000 nM

### Prompt What IC50 value was documented for this compound, C[C@@H]1CC(=O)NN1Cc1cc(C(F)(F)F)c2cn(-c3cccc([C@H](c4nncn4C)C4CCC4)c3)c(=O)n2c1 (single isomer, unassigned) ?
### Response < 100 nM

The origin of these recorded values is patent US20240228482A1.
